Tested on: CAL-27 (Oral Cavity Carcinoma);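 note: after 72 h of two-drug dosing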
Assay Name: Bliss excess, mean over the matrix (fraction); higher = more synergy
Mark no (0) for Bliss excess values under 0.0005, and yes (1) for everything at or above.

Input: Threshold query (Bliss excess >= 0.0005) on C[C@@H]1COCCN1c1cc(C2([S@](C)(=N)=O)CC2)nc(-c2ccnc3[nH]ccc23)n1 [AZD6738] + O=C(c1cc(Cc2n[nH]c(=O)c3ccccc23)ccc1F)N1CCN(C(=O)C2CC2)CC1 [Olaparib] (first compound max 10 µM, 7x7, partner max 10 µM)
Output: yes (1)

Input: How about NC1(C(=O)N[C@@H](CCO)c2ccc(Cl)cc2)CCN(c2ncnc3[nH]ccc23)CC1 [Capivasertib] + COc1nnc2ccc(N3CCC(c4ccc(OCCN5CCN(C)C(=O)[C@H]5C)cc4)CC3)nn12 [AZD5153] (first compound max 10 µM, 7x7, partner max 1 µM) ?
Output: no (0)

Input: What do we get for CC(=O)Nc1cccc(-n2c(=O)n(C3CC3)c(=O)c3c(Nc4ccc(I)cc4F)n(C)c(=O)c(C)c32)c1 [Trametinib] + Cc1nc(-c2cn3c(n2)-c2ccc(-c4cnn(C(C)(C)C(N)=O)c4)cc2OCC3)n(C(C)C)n1 [Taselisib] (first compound max 1 µM, 7x7, partner max 10 µM) ?
Output: yes (1)

Input: And COc1cccc(OCCCN)c1-c1cc(Nc2cnc(C#N)cn2)n[nH]1 [Prexasertib] + C[C@@H]1COCCN1C2=NC(=NC(=C2)C3(CC3)[S@](=N)(=O)C)C4=C5C=CNC5=NC=C4 [AZD6738] (first compound max 1 µM, 7x7, partner max 10 µM) ?
Output: yes (1)

Input: And what about the compound COc1cc2c(cc1OCCCCCOc1cc3c(cc1OC)C(=O)N1C=C(C)C[C@H]1C=N3)N=C[C@@H]1CC(C)=CN1C2=O [SG3199] + O=C(c1cc(Cc2n[nH]c(=O)c3ccccc23)ccc1F)N1CCN(C(=O)C2CC2)CC1 [Olaparib] (first compound max 0.001 µM, 7x7, partner max 10 µM) ?
Output: no (0)

Input: Also check NC1(C(=O)N[C@@H](CCO)c2ccc(Cl)cc2)CCN(c2ncnc3[nH]ccc23)CC1 [Capivasertib] + C[C@@H]1COCCN1C2=NC(=NC(=C2)C3(CC3)[S@](=N)(=O)C)C4=C5C=CNC5=NC=C4 [AZD6738] (first compound max 10 µM, 7x7, partner max 10 µM)
Output: no (0)

Input: Same for CC(=O)c1c(C)c2cnc(Nc3ccc(N4CCNCC4)cn3)nc2n(C2CCCC2)c1=O [Palbociclib] + CC1(C)CCC(CN2CCN(c3ccc(C(=O)NS(=O)(=O)c4ccc(NCC5CCOCC5)c([N+](=O)[O-])c4)c(Oc4cnc5[nH]ccc5c4)c3)CC2)=C(c2ccc(Cl)cc2)C1 [Venetoclax] (first compound max 10 µM, 7x7, partner max 1 µM)
Output: no (0)

Input: Proceed to CC1(C)CCC(CN2CCN(c3ccc(C(=O)NS(=O)(=O)c4ccc(NCC5CCOCC5)c([N+](=O)[O-])c4)c(Oc4cnc5[nH]ccc5c4)c3)CC2)=C(c2ccc(Cl)cc2)C1 [Venetoclax] + Cn1cnc2c(F)c(Nc3ccc(Br)cc3Cl)c(C(=O)NOCCO)cc21 [Selumetinib] (first compound max 1 µM, 7x7, partner max 3 µM)
Output: no (0)

Input: COc1nnc2ccc(N3CCC(c4ccc(OCCN5CCN(C)C(=O)[C@H]5C)cc4)CC3)nn12 [AZD5153] + C[C@@H]1COCCN1C2=NC(=NC(=C2)C3(CC3)[S@](=N)(=O)C)C4=C5C=CNC5=NC=C4 [AZD6738] (first compound max 1 µM, 7x7, partner max 10 µM) , same question.
Output: yes (1)

Input: Now consider CN(CCO)CC[C@H](CSc1ccccc1)Nc1ccc(S(=O)(=O)NC(=O)c2ccc(N3CCC([C@@H](O)c4ccccc4-c4ccc(Cl)cc4)CC3)cc2)cc1S(=O)(=O)C(F)(F)F [AZD4320] + C=CCn1c(=O)c2cnc(Nc3ccc(N4CCN(C)CC4)cc3)nc2n1-c1cccc(C(C)(C)O)n1 [AZD1775] (first compound max 1 µM, partner max 1 µM) and answer again.
Output: no (0)

Input: Follow-up item: Cc1c2c(nn1C)CSCc1cc(n(C)n1)CSc1cc(c3ccccc3c1)OCCCc1c(C(=O)O)n(C)c3c-2c(Cl)ccc13 [AZD5991] + Cn1cnc2c(F)c(Nc3ccc(Br)cc3Cl)c(C(=O)NOCCO)cc21 [Selumetinib] (first compound max 1 µM, 7x7, partner max 3 µM)
Output: yes (1)

Input: And for Cc1c2c(nn1C)CSCc1cc(n(C)n1)CSc1cc(c3ccccc3c1)OCCCc1c(C(=O)O)n(C)c3c-2c(Cl)ccc13 [AZD5991] + C[C@@H](Nc1cc(F)cc(F)c1)c1cc(C(=O)N(C)C)cc2c(=O)cc(N3CCOCC3)oc12 [AZD8186] (first compound max 1 µM, 7x7, partner max 3 µM) ?
Output: yes (1)
